tested on: RAW-Dual; test: NF-kB SEAP reporter activity, fold change vs agonist alone; cytotoxicity flag (confluency mask): not cytotoxic; higher = enhanced NF-kB activity; conditions: agonist: LPS (TLR4) 0.1 ug/mL
In all, about 2,900 compounds were measured (“NF-kB SEAP reporter activity, fold change vs agonist alone”: median about 0.99, highest 2% from about 2.6 on). The list comes from a sample in which the highest values are over-represented; it also holds close analogues and randomly drawn compounds.
Returns YES if the recorded NF-kB SEAP reporter activity is greater than or equal to 2, and NO otherwise.

compound	assigned-class
CN(C/C=C/C#CC(C)(C)C)Cc1cccc2ccccc12 (library stock concentration (final ~1000-fold dilution): 10 mM)	YES
CC(C)NCC(O)COc1ccc(COCCOC(C)C)cc1.O=C(O)/C=C/C(=O)O (stereo not given) (library stock concentration (final ~1000-fold dilution): 10 mM)	NO
CN(C/C=C/C#CC(C)(C)C)Cc1cccc2ccccc12.Cl (library stock concentration (final ~1000-fold dilution): 10 mM)	YES
Cc1cn(-c2cc(NC(=O)c3ccc(C)c(Nc4nccc(-c5cccnc5)n4)c3)cc(C(F)(F)F)c2)cn1.Cl (library stock concentration (final ~1000-fold dilution): 10 mM)	YES
COc1cccc(-c2c(C)n(Cc3c(F)cccc3C(F)(F)F)c(=O)n(CC(NCCCC(=O)O)c3ccccc3)c2=O)c1F (stereo not given) (library stock concentration (final ~1000-fold dilution): 10 mM)	NO
